The values you see were collected from patent US20250223342A1.

Biological target: T1, human serum albumin (human, UniProt P02768 25-609)
T1 construct: also called HSA
Assay: SPR (Biacore 3000), HSA on chip, Fc-ABDEG fusion, ratio of R0
Values of R0 5.5/7.4 strictly less than 10 map to T, and values of at least 10 map to F.

# example entries with known answers
INSERT INTO assay_data (binder, label) VALUES
  ('11C03 CDR2-V4 fused at the C-terminus of Fc-ABDEG (Fc fusion, not shown: a dimerising Fc or GST; small tags and cut ends) QLQVVESGGGLVQAGGSLRLSCAASERTFVAYPMGWFRQAPEKEREFVAGISAFAGATTDYADSVEGRFTISRDNAKNTAYLQMNNLKPEDTAVYYCAISHQLPGGRPGRDMDSYSYWGHGTQVTVSS', 'F'),
  ('11C03 CDR2-V5 fused at the C-terminus of Fc-ABDEG (Fc fusion, not shown: a dimerising Fc or GST; small tags and cut ends) QLQVVESGGGLVQAGGSLRLSCAASERTFVAYPMGWFRQAPEKEREFVAGISWAAGATTDYADSVEGRFTISRDNAKNTAYLQMNNLKPEDTAVYYCAISHQLPGGRPGRDMDSYSYWGHGTQVTVSS', 'F'),
  ('11C03 CDR2-V3 fused at the C-terminus of Fc-ABDEG (Fc fusion, not shown: a dimerising Fc or GST; small tags and cut ends) QLQVVESGGGLVQAGGSLRLSCAASERTFVAYPMGWFRQAPEKEREFVAGIAWFAGATTDYADSVEGRFTISRDNAKNTAYLQMNNLKPEDTAVYYCAISHQLPGGRPGRDMDSYSYWGHGTQVTVSS', 'F'),
  ('11C03 CDR2-V7 fused at the C-terminus of Fc-ABDEG (Fc fusion, not shown: a dimerising Fc or GST; small tags and cut ends) QLQVVESGGGLVQAGGSLRLSCAASERTFVAYPMGWFRQAPEKEREFVAGISWFAAATTDYADSVEGRFTISRDNAKNTAYLQMNNLKPEDTAVYYCAISHQLPGGRPGRDMDSYSYWGHGTQVTVSS', 'T'),
  ('11C03 CDR2-V12 fused at the C-terminus of Fc-ABDEG (Fc fusion, not shown: a dimerising Fc or GST; small tags and cut ends) QLQVVESGGGLVQAGGSLRLSCAASERTFVAYPMGWFRQAPEKEREFVAGISWFAGATTDAADSVEGRFTISRDNAKNTAYLQMNNLKPEDTAVYYCAISHQLPGGRPGRDMDSYSYWGHGTQVTVSS', 'F');

We now examine a further binder.
*Q* For 11C03 parental fused at the C-terminus of Fc-ABDEG (Fc fusion, not shown: a dimerising Fc or GST; small tags and cut ends) QLQVVESGGGLVQAGGSLRLSCAASERTFVAYPMGWFRQAPEKEREFVAGISWFAGATTDYADSVEGRFTISRDNAKNTAYLQMNNLKPEDTAVYYCAISHQLPGGRPGRDMDSYSYWGHGTQVTVSS , is the recorded R0 5.5/7.4 below the cut-off of 10?
*A* T
